Values were extracted from patent US11608380B2.

Target: EGFR-mFc (Homo sapiens, UniProt P00533)
Assay: SPR (BIACORE) binding kinetics, receptor-capture format
Settings: 37° C., EGFR-mFc captured, NB=no binding
Recorded ka, one value per entry.
measurement-kind: ka (M⁻¹ s⁻¹)

INSERT INTO assay_data (molecule, measurement_kind, measured_number) VALUES
  ('H1H1913N: human IgG1 Fc anti-EGFRvIII antibody with variable domains 1913; HCVR/LCVR SEQ ID NOs 130/138 (antibody, V domains shown, human IgG1 Fc) VH: QVQLQQWGAGLLKPSETLSLTCAVYGGSFSGDYWSWIRQSPGKGLEWIGEINHSGSTNYNPSLKSRVTISIDTSKNQFSLKLSSVTAADTAVYYCARGGGDYYYGMDVWGLGTTVTVSS VL: AIQMTQSPSSLSASVGDRVTITCRASQGIGNDLGWYQQKPGKAPNLLIYATSSLQSGVPSRFSGSGSGTDFTLTISSLQPEDFATYYCLQDYNYPWTFGQGTKVEIK', 'ka', 5930),
  ('H1H1915N: human IgG1 Fc anti-EGFRvIII antibody with variable domains 1915; HCVR/LCVR SEQ ID NOs 82/90 (antibody, V domains shown, human IgG1 Fc) VH: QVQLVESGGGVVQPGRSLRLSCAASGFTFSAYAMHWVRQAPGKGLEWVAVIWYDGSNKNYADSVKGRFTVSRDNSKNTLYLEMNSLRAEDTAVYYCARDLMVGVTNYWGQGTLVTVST VL: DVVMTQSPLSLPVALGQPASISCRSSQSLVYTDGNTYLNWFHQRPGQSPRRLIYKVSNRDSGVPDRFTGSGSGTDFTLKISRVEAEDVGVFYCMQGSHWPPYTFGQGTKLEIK', 'ka', 43500);
